tested on: OVCAR3 cells; assay: Cell proliferation activity test (CyQUANT Direct); format: cell-based; conditions: 3 days, 0.2% DMSO, CyQUANT fluorescence
VALUE_TYPE: log10 of IC50 (log10 of the value in nM)

# COMPOUND, log10 of IC50
records = [
    ("COc1cc2nc(n1)N1CCC(F)(F)C(CCCc3ccc(cc3)-c3cc(NS(=O)(=O)CCO)ccc3C(=O)N2)C1 (single isomer, unassigned) [Example 51B]", 1.86),
    ("Cc1cc2nc(n1)N1CCC(F)(F)C(/C=C\\CC3CCN(CC3)c3cc(NS(=O)(=O)CCO)ccc3-c3cn-2nn3)C1 (single isomer, unassigned) [Example 84B]", 2.67),
    ("COc1cc2nc(n1)N1CCC(F)(F)C(CCCc3ccc(cc3)-c3cc(NS(=O)(=O)CCO)ncc3C(=O)N2)C1 (single isomer, unassigned) [Example 56B]", 2.05),
    ("Cc1cc2nc(n1)N1CCC(F)(F)C(/C=C/CC3CCN(CC3)c3cc(NS(=O)(=O)CCO)c4ccccc4c3C(=O)N2)C1 (single isomer, unassigned) [Example 1D]", 2.14),
    ("Cc1cc2nc(n1)N1CCC(F)(F)C(C=CCC3CCN(CC3)c3cc(NS(=O)(=O)CCO)c4c(c3C(=O)N2)CCC4=O)C1 (single isomer, unassigned) [Example 2D]", 2.83),
    ("Cc1cc2nc(n1)N1CCC(F)(F)C(/C=C\\CC3CCN(CC3)c3cc(NS(=O)(=O)CCO)c4ccccc4c3C(=O)N2)C1 (single isomer, unassigned) [Example 1B]", 1.34),
    ("Cc1cc2nc(n1)N1CCC(F)(F)C(/C=C\\CC3CCN(CC3)c3cc(NS(=O)(=O)CCO)ccc3-c3cn-2nn3)C1 (single isomer, unassigned) [Example 84A]", 1.41),
    ("Cc1cc2nc(n1)N1CCC(F)(F)C(/C=C\\CC3CCN(CC3)c3cc(NS(=O)(=O)CCO)c4ccccc4c3C(=O)N2)C1 (single isomer, unassigned) [Example 1A]", 3.45),
    ("Cc1cc2nc(n1)N1CCC(F)(F)C(C=CCC3CCN(CC3)c3cc(NS(=O)(=O)CCO)c4c(c3C(=O)N2)CCC4=O)C1 (single isomer, unassigned) [Example 2B]", 2.81),
    ("Cc1cc2nc(n1)N1CCC(F)(F)C(/C=C/CC3CCN(CC3)c3cc(NS(=O)(=O)CCO)c4ccccc4c3C(=O)N2)C1 (single isomer, unassigned) [Example 1C]", 3.01),
]
